Data origin: ChEMBL document CHEMBL4411261

system: Quadruplex DNA; assay: Binding affinity to 5'-Biotinylated-AR1 G-quadruplex oligonucleotide (unknown origin) by SPR analysis relative to control; format: nucleic-acid assay
Hi! Just check whether RBA is below 40%. Below gives 1, equal or above gives 0.

Some entries whose results are on file:
CN(C)CCCn1c(=O)c2ccc3c(=O)n(CCCN(C)C)c(=O)c4c5[nH]c6ccccc6[nH]c5c(c1=O)c2c34.Cl.Cl
0
CN(C)CCN1C(=O)c2ccc3c4c(c(NCCc5ccc(O)c(CN(C)C)c5)cc(c24)C1=O)C(=O)N(CCN(C)C)C3=O
0
CN(C)CCCNc1cc2c3c(ccc4c3c1C(=O)N(CCCN(C)C)C4=O)C(=O)N(CCCN(C)C)C2=O
0
CN(C)CCCN1C(=O)c2ccc3c4c(c5[nH]c(=O)c(=O)[nH]c5c(c24)C1=O)C(=O)N(CCCN(C)C)C3=O
0

Q: Given the entry CN(C)CCN1C(=O)c2ccc3c4c(c(C#Cc5ccc(CN(C)C)c(O)c5)cc(c24)C1=O)C(=O)N(CCN(C)C)C3=O , would its reported RBA be below 40%?
Result: 0

Q: Given the entry CN(C)CCCN1C(=O)c2ccc3c4c(c(NCCCCNc5cc6c7c(ccc8c7c5C(=O)N(CCCN(C)C)C8=O)C(=O)N(CCCN(C)C)C6=O)cc(c24)C1=O)C(=O)N(CCCN(C)C)C3=O , would its reported RBA be below 40%?
Result: 1

Q: Given the entry CN(C)CCCN1C(=O)c2ccc3c4c(c(NCCCCCCCNc5cc6c7c(ccc8c7c5C(=O)N(CCCN(C)C)C8=O)C(=O)N(CCCN(C)C)C6=O)cc(c24)C1=O)C(=O)N(CCCN(C)C)C3=O , would its reported RBA be below 40%?
Result: 1
